tested on: SK-MEL-5; assay: Growth inhibition of human SK-MEL5 cells; type: functional; conditions: read-out: Log TGI (converted)
Test readout: TGI (µM)
Report the value in µM with no unit label.

A selection of reference data follows.
CCCc1cc(=O)c2c(OC)c3c(OC)cc(O)c(Oc4c(O)cc(OC)c5c(OC)c6c(=O)cc(CCC)oc6cc45)c3cc2o1 ... 3.8
COc1cc(O)cc2cc3oc(C)cc(=O)c3c(O)c12 ... 12

`CCCc1cc(=O)c2c(O)c3c(OC)cc(O)cc3cc2o1` yielded TGI of 27.5

###

system: SF-295; assay: Growth inhibition of human SF295 cells; type: functional
Test readout: GI50

COc1cc(O)cc2cc3oc(C)cc(=O)c3c(O)c12 ... 30.2 µM
CCCc1cc(=O)c2c(OC)c3c(OC)cc(O)c(Oc4c(O)cc(OC)c5c(OC)c6c(=O)cc(CCC)oc6cc45)c3cc2o1 ... 5.13 µM
COc1cc(O)cc2cc3oc(C)cc(=O)c3c(OC)c12 ... > 100 µM

Recorded result, `CCCc1cc(=O)c2c(O)c3c(OC)cc(O)cc3cc2o1` , GI50: 24.5 µM

Record `CCCc1cc(=O)c2c(OC)c3c(OC)cc(OC)cc3cc2o1` . Reported GI50: 53.7 µM

// provenance: ChEMBL document CHEMBL1141286
